This collection of values is drawn from patent US7342012B2.

Assay Endpoint: melting point (°C)

N[C@@H]1CN2C(=O)N(c3cc(Cl)nc(Cl)c3)C(=O)[C@@]2(Cc2ccc(OC(F)(F)F)cc2)C1
150.6

[1] O=C1N(c2cc(Cl)cc(Cl)c2)C(=O)[C@]2(Cc3ccc(Br)cc3)C[C@H](O)CN12
[2] CS(=O)(=O)N[C@@H]1CN2C(=O)N(c3cc(Cl)nc(Cl)c3)C(=O)[C@@]2(Cc2ccc(OC(F)(F)F)cc2)C1
query: Compare melting point: is it lower for 1 or for 2 ? Indicate which entry you chose by stating its label.
result: 1

[1] CN(C)C(=O)C1CN2C(=O)N(c3cc(Cl)cc(Cl)c3)C(=O)C2(Cc2ccc(OC(F)(F)F)cc2)C1 (stereo not drawn)
[2] O=C1N(c2cc(Cl)nc(Cl)c2)C(=O)[C@]2(Cc3ccc(OC(F)(F)F)cc3)C[C@@H](O)CN12
[3] N#Cc1ccc(C(=O)C23CCCN2C(=O)N(c2cc(Cl)cc(Cl)c2)C3=O)cc1 (stereo not drawn)
query: Sort entries by melting point from minimum to maximum value. Form entry: labels listed in requested order.
result: 3, 1, 2

[a] O=C(O)CCC(=O)N[C@@H]1CN2C(=O)N(c3cc(Cl)nc(Cl)c3)C(=O)[C@@]2(Cc2ccc(OC(F)(F)F)cc2)C1
[b] N#Cc1ccc(CC23CCNN2C(=O)N(c2cc(Cl)nc(Cl)c2)C3=O)cc1 (stereo not drawn)
query: Returns the identifier with the smallest measured melting point among a and b . Return value: the label identifying the chosen record.
result: a
(a: 101.9 °C, b: 187 °C)

[A] NC(=O)[C@H]1CN2C(=O)N(c3cc(Cl)cc(Cl)c3)C(=O)[C@]2(Cc2ccc(OC(F)(F)F)cc2)C1
[B] CN1CCN2C(=O)N(c3cc(Cl)cc(Cl)c3)C(=O)C2(Cc2ccc(Br)cc2)C1 (stereo not drawn)
[C] COC(=O)C=C1CN2C(=O)N(c3cc(Cl)cc(Cl)c3)C(=O)C2(Cc2ccc(Br)cc2)C1 (stereo not drawn)
query: Ascending sort, melting point. To answer, write out the labels according to the requested order.
result: C, A, B
(C: 74.9 °C, A: 122.7 °C, B: 221 °C)

[I] NCC(=O)N[C@@H]1CN2C(=O)N(c3cc(Cl)nc(Cl)c3)C(=O)[C@@]2(Cc2ccc(OC(F)(F)F)cc2)C1
[II] O=C1N(c2cc(Cl)cc(Cl)c2)C(=O)C2(Cc3ccc(-c4cccc(CO)c4)cc3)CCCN12 (stereo not drawn)
query: Pick the one with the larger melting point: I vs II Output the label that corresponds to your choice.
result: I

[I] COc1c(Cl)cc(N2C(=O)N3CCCC3(Cc3ccc(C#N)cc3)C2=O)cc1Cl (stereo not drawn)
[II] NC(=O)C1CN2C(=O)N(c3cc(Cl)cc(Cl)c3)C(=O)C2(Cc2ccc(OC(F)(F)F)cc2)C1 (stereo not drawn)
query: Between I and II , which one shows the smaller melting point number? Give the label under which the chosen entry appears.
result: I
